The origin of these recorded values is a melting point compilation (Tetko et al.; mined from patent text by program, amines drawn as free bases though some values may be those of a salt).

Exercise: for every item that follows, state its recorded melting point.

The following molecules have reported results that may help.
Prompt: # return recorded melting point for input CNC(=O)Oc1cccc(NC(=O)C=C(C)OC)c1
Completion: 175 °C

Prompt: # return recorded melting point for input O=C(c1ccc(Cl)cc1)c1ccc(NCC2CO2)cc1 (centres undefined)
Completion: 128 to 129 °C

Prompt: # return recorded melting point for input COc1ccc(CNc2cc3c(Nc4ccc(F)c(C(F)(F)F)c4)ncnc3cn2)cc1
Completion: 202 to 204 °C

Prompt: # return recorded melting point for input CC(C)Cn1c(-c2c(F)cccc2F)cnc(-n2cccn2)c1=O
Completion: 91 to 92 °C

Prompt: # return recorded melting point for input O=[N+]([O-])c1cc([N+](=O)[O-])c(Nc2ccc(Cl)c3ccccc23)c(C(F)(F)F)c1
Completion: 197 to 198 °C

Prompt: # return recorded melting point for input Cn1nc(C(F)(F)F)cc1Oc1cccc(-c2nc(C(F)(F)F)no2)n1
Completion: 91 to 93 °C

Take each entry in turn and give its melting point.
1. COc1ccc(Cn2nnc(-c3ccc(OC)c(C(=O)NCc4ccc(F)cc4)c3)n2)cc1
2. COc1ccc2c(c1)S(=O)(=O)N(C(OC(=O)c1sccc1Cl)C(C)C)C2=O (centres undefined)
3. CCC(C)CNC(=O)c1ccc2cccc(Cc3ccc(C(=O)OC)cc3OC)c2c1 (centres undefined)

Completion:
1. 156 to 158 °C
2. 138 to 140 °C
3. 134 to 135 °C

====

Exercise: for every item that follows, state its recorded melting point.

Prompt: # return recorded melting point for input Cc1nc2c(N)nc3c(c2n1CCCCCS(C)(=O)=O)CCCC3
Completion: 172 to 174 °C

Prompt: # return recorded melting point for input Fc1ccc2cc(C3=CCNCC3)sc2c1
Completion: 155 to 157 °C

Take each entry in turn and give its melting point.
1. COc1cc(S(=O)(=O)C(c2cc(F)ccc2F)c2cc(N)ncc2Cl)ccc1Cl (stereo not given)
2. N#CC(=CNC1CC1)C(=O)c1ccc(Cl)cc1Cl

Completion:
1. 198 to 200 °C
2. 93 to 94 °C

Take each entry in turn and give its melting point.
1. CC1CN2C(=NC1=O)CCC2C (stereo not given)
2. CCNC(=O)Nc1nc2nc(NCCCN3CCN(C)CC3)ncc2cc1-c1c(Cl)cccc1Cl
3. Clc1cccc(Nc2ncnc(-c3ccnc(Cl)c3)n2)c1
4. CCc1c(-c2ccc(O)cc2)c2cc(COCCN(CC)CC)c3cccc1n32
5. COc1ccc(C(=O)Nc2ccccc2)cc1NS(=O)(=O)c1cccc2cccnc12

Completion:
["150 to 152 °C", "82 to 90 °C", "178 to 180 °C", "93 to 95 °C", "187 to 188 °C"]

Prompt: # return recorded melting point for input COC(c1ccc(Cl)c2nc3n(c12)CCCN3c1ccc(Cl)cc1Cl)(C1CC1)C1CC1
Completion: 99 to 100 °C

====

Exercise: for every item that follows, state its recorded melting point.

Prompt: # return recorded melting point for input O=S(=O)(Cl)C(F)(F)C(F)(F)C(F)(F)C(F)(F)C(F)(F)C(F)(F)C(F)(F)C(F)(F)F
Completion: 36 °C

Prompt: # return recorded melting point for input Cn1c(Cl)c(Cl)c2cnc(NC(=O)c3ccc([C@](C)(O)CO)cc3)cc21
Completion: 205 to 208 °C

Prompt: # return recorded melting point for input Cc1c(-c2ccccc2)oc2c(CC(=O)O)cccc2c1=O
Completion: 191 to 192 °C

Prompt: # return recorded melting point for input CCc1ccc(Nc2nc3cc(NC(=O)c4cccc(CCl)c4)ccc3o2)cc1
Completion: 194 to 195 °C

Prompt: # return recorded melting point for input O=[N+]([O-])c1cnc2ccc(SC(c3ccccc3)(c3ccccc3)c3ccccc3)nn12
Completion: 168 to 170 °C

Take each entry in turn and give its melting point.
1. COc1cc(CCc2c(/C=C/[N+](=O)[O-])ccc(OC)c2OC)cc(OC)c1
2. CCCN1CCC(Cc2ccc3c(c2)c(Cc2ccc(C(=O)O)cc2OC)cn3CCC)C1=O (stereo not given)
3. c1ccc(C(c2ccc3cccnc3c2)n2ccnc2)cc1 (stereo not given)
4. O=C(NCCN1CCC(O)(c2ccc(Cl)cc2)CC1)c1ccc(F)cc1[N+](=O)[O-]
5. CC(=O)Oc1cccc2oc(C(=O)Nc3ccc(CC4SC(=O)NC4=O)cc3)cc(=O)c12 (stereo not given)

Completion:
1. 95 to 96 °C
2. 75 to 86 °C
3. 111 °C
4. 144 °C
5. 257 to 260 °C

Take each entry in turn and give its melting point.
1. O=c1[nH]c2c(C(F)(F)F)cccc2c(=O)n1CCCN1CC=C(c2ccc(Cl)cc2)CC1
2. CNC(=O)NCCN1CCC(Nc2nc3ccccc3n2Cc2ccc(F)cc2)CC1
3. OC(CCc1cccnc1)COc1ccc(CCc2ccccc2)cc1 (stereo not given)
4. CC(C)N(C(N)=S)c1ccc2c(c1)OCO2
5. COc1cc2c(c(OC)c1/C=C/c1ccc(COC(C)=O)cc1)C(C)(C)CCC2(C)C
6. O=C1NS(=O)Oc2ccccc21 (stereo not given)
7. CCOC(=O)c1c(N2CCCC2)c2cnc(-c3ccccc3)nc2n(CC)c1=O
8. C=Cc1c(N)nc(-c2ccc(Cl)nc2)nc1C(=O)OC

Completion:
1. 199 to 201 °C
2. 231 °C
3. 95 to 96 °C
4. 149 to 151 °C
5. 73 to 74 °C
6. 180 to 182 °C
7. 149 to 153 °C
8. 194 to 195 °C

Take each entry in turn and give its melting point.
1. C[C@H](N)c1ccc(O)cc1
2. CCc1cccc2nc(N[C@@H](CC(C)C)C(=O)OC)oc(=O)c12

Completion:
120 °C
74 to 76 °C

====

Exercise: for every item that follows, state its recorded melting point.

The following compounds have reported results that may help.
Prompt: # return recorded melting point for input Nc1cc(Cl)c(Br)cc1[N+](=O)[O-]
Completion: 185 to 195 °C

Prompt: # return recorded melting point for input COC(=O)c1ccc2occ(-c3ccc(S(C)=O)cc3)c2c1 (stereo unspecified)
Completion: 145 to 146 °C

Prompt: # return recorded melting point for input CC(C)(C)OC(=O)CN1CCN2C(=O)N(c3cc(Cl)cc(Cl)c3)C(=O)C2(Cc2ccc(Br)cc2)C1 (stereo unspecified)
Completion: 74.7 °C

Prompt: # return recorded melting point for input O=c1ccoc2cc(OS(=O)(=O)C(F)(F)F)ccc12
Completion: 43 to 44 °C

Prompt: # return recorded melting point for input COc1ccc(C=CCO)cc1OC
Completion: 70 to 71 °C

***
Prompt: # return recorded melting point for input COCCn1c(=O)[nH]c2ncc(-c3ccc(O)cc3)nc21
Completion: 236 to 237 °C

====

Exercise: for every item that follows, state its recorded melting point.

Prompt: # return recorded melting point for input Nc1cc(Cl)cc([N+](=O)[O-])c1C(=O)O
Completion: 202 to 205 °C

Prompt: # return recorded melting point for input COc1ccc2c(c1)CC(Nc1ccc(O)cc1)C2 (stereo not given)
Completion: 144 to 146 °C

Prompt: # return recorded melting point for input Cc1c(NC(=O)CC(C)(C)C)c(C)c2c(c1-c1ccncc1)OCC2c1ccc(C(C)C)cc1 (stereo not given)
Completion: 150 to 152 °C

Prompt: # return recorded melting point for input CC(=O)Nc1ccc(Oc2c(NCc3ccco3)cc(C(=O)O)cc2S(=O)(=O)NC(C)=O)cc1
Completion: 250 °C

Prompt: # return recorded melting point for input CS(=O)(=O)c1ccc(Oc2ccc(Cl)cc2)cc1
Completion: 109 to 111 °C

Take each entry in turn and give its melting point.
1. COc1cc(C)nc(NC(=O)NS(=O)(=O)c2ccccc2-n2cccn2)n1
2. COc1ccc(CCCNC(=O)N(C)O)cc1OC
3. O=c1[nH]c2cc(Cl)ccc2c(O)c1-c1ccccc1Br
4. CCOC(=O)c1c(OCC)c2ccc(C)nc2n(CC)c1=O
5. O=C(O)c1cc(CN2C(=O)C3(COc4cc5c(cc43)OCO5)c3ccccc32)oc1C(F)(F)F (stereo not given)

Completion:
1. 200 to 204 °C
2. 99 to 100 °C
3. 357 to 358 °C
4. 77 to 79 °C
5. 195 to 197 °C

====

Exercise: for every item that follows, state its recorded melting point.

The following compounds have reported results that may help.
Prompt: # return recorded melting point for input CC(C)(OCc1cc2cc(Cl)ccc2n1S(=O)(=O)c1ccc2ncsc2c1)C(=O)O
Completion: 74 °C

Prompt: # return recorded melting point for input CC(C)Oc1ccc(NCCS(=O)(=O)NCCCOc2cccc(CN3CCCCC3)c2)cc1
Completion: 110 to 122 °C

Take each entry in turn and give its melting point.
1. CC1(C)Cc2c(CO)c(O)c3c(c2C(c2ccccc2)=N1)CC(C)(C)O3
2. N[C@@H](CCC(=O)NCCS(=O)(=O)O)C(=O)O
3. Cc1c(C=NO)c2cc(Br)ccc2n1-c1ccc(O)cc1
4. COC(=O)CCCS(=O)(=O)c1c(Cc2cccc3ccccc23)sc2c1c(=O)n(C)c(=O)n2CC(C)C
5. CCCOC(N)=C(C#N)C(N)=S

Completion:
1. 210 to 230 °C
2. 202 to 204 °C
3. 209 to 211 °C
4. 122 to 124 °C
5. 174 °C
